Values from ChEMBL document CHEMBL1201862

- System: SN12C
- test.details: NCI tumour cell line growth inhibition, 48 h
Calls of active or inactive are those of the source. No stated cut-off is given here; in the data, active = GI50 up to about 1.1 µM and inactive = higher.
readout.label: GI50

smiles_notation=Cc1ccc(SC(CCC(Sc2ccc(C)cc2)Sc2ccc(C)cc2)Sc2ccc(C)cc2)cc1 readout_label=GI50 recorded_result="> 100 µM (inactive)"
smiles_notation=CC1=C[C@]2(O)C(=O)[C@H](C)C[C@H]3[C@@H](CC[C@@](C)(O)/C=C\2C1=O)C3(C)C readout_label=GI50 recorded_result="20.3 µM (inactive)"
smiles_notation=CN(C)CCNC(=O)c1cccc2c1nc(-c1ccncc1)c1ccccc12 readout_label=GI50 recorded_result="1.58 µM (inactive)"
smiles_notation=C/C(=N/NC(=S)N(C)C)c1ccccc1O readout_label=GI50 recorded_result="14.4 µM (inactive)"

// switching to the query molecule
// sample Oc1c(Br)cc(CN(Cc2cc(Br)c(O)c(Br)c2)C2CCCCC2)cc1Br , its GI50 was > 100 µM (inactive)

====

- Tested on: COLO 205
- test.details: NCI tumour cell line growth inhibition, 48 h
The source made the active and inactive calls. Cut-off read from the data, not from the text of the source: active = GI50 up to about 1.1 µM and inactive = higher.
readout.label: GI50

Consider the following illustrative entries.
compound="CCOP(=O)(OCC)C1(O)CC(n2cc(C)c(=O)[nH]c2=O)OC1CO (centres undefined)" readout_label=GI50 recorded_result="> 100 µM (inactive)"
compound="CCOC(=O)C1(Cc2ccc3ccccc3c2)CCCCCN1 (centres undefined)" readout_label=GI50 recorded_result="18.7 µM (inactive)"
compound="C=C(CC[C@@H](C)[C@H]1CC[C@@]2(C)C3=C(CC[C@]12C)[C@@]1(C)CC[C@H](O)[C@@H](C)C1CC3)C(C)C (some centres undefined)" readout_label=GI50 recorded_result="1.17 µM (inactive)"

// sample c1ccc([P+](c2ccccc2)(c2ccccc2)C2Sc3ccccc3S2)cc1 , its GI50 was 16.7 µM (inactive)

====

This listing pairs compounds with measured GI50.
- Test system: MCF7
- test.details: NCI tumour cell line growth inhibition, 48 h
Activity calls are given as the source filed them. No stated cut-off is given here; in the data, active = GI50 up to about 1.1 µM and inactive = higher.

// sample COc1ccc2c(c1)[n+]([O-])c(/C(C)=N/NC(N)=S)c(C)[n+]2[O-] , its GI50 was 41.4 µM (inactive)

// sample CN(NC(=O)c1ccco1)C1=NCCN1 , its GI50 was > 100 µM (inactive)

// sample NC(=O)C(Nc1c(Cl)cccc1Cl)c1cc2cc(Br)ccc2nc1Cl (stereo not given) , its GI50 was 30.1 µM (inactive)

====

- System: SF-539
- test.details: NCI tumour cell line growth inhibition, 48 h
Active and inactive are the calls of the source. No stated cut-off is given here; in the data, active = GI50 up to about 1.1 µM and inactive = higher.
Please reply with one of these outcomes: active, inactive

Below, 3 molecules whose answers are already recorded.
molecule=NC(=S)N/N=C(\CCC(=O)Nc1ccccc1[N+](=O)[O-])CC(=O)c1ccco1 assay_target=SF-539 discrete_label=inactive
molecule="CCC1CN2CCC3(c4ccccc4)CC(C(=O)OC)=CC1C23 (stereo not drawn)" assay_target=SF-539 discrete_label=inactive
molecule=Cc1ccc(C)c2c1n1c(=O)n(C)c(=O)n21 assay_target=SF-539 discrete_label=inactive

// param item: COc1ccc(NC2=CC(=O)C(=O)c3ccccc32)nn1 ; yields the recorded call active

// param item: O=S(O)c1cc(Cl)c(O)c(Cl)c1 ; yields the recorded call inactive

// param item: COc1ccc2c(NCCCCCCNc3c4ccccc4nc4cc(OC)ccc34)c3ccccc3nc2c1 ; yields the recorded call active

// param item: C1=CN2C[n+]3ccc4ccccc4c3N=C2c2ccccc21 ; yields the recorded call inactive

// param item: CCCCCCNC(=S)N/N=C(\C)c1ccccn1 ; yields the recorded call inactive
